- Tested system: Fuc(a1-2)Gal(b1-4)GlcNAc(b1-3)Gal(b1-4)GlcNAc(b1-3)Gal(b1-4)GlcNAc
- Method: glycan array binding signal (z-score within array); higher = stronger binding
- Conditions: glycan notation: IUPAC condensed, linker removed
The sample as a whole holds a higher share of the strongest signals than the screen did.
Assay readout: glycan array binding signal (z-score)
Please reply with the number alone, leaving off any unit.

**Query** Given the binder Flo5 (Saccharomyces cerevisiae), P38894 (protein) MGSSHHHHHHSSGLVPRGSHMSGATEACLPAGQRKSGMNINFYQYSLKDSSTYSNAAYMAYGYASKTKLGSVGGQTDISIDYNIPCVSSSGTFPCPQEDSYGNWGCKGMGACSNSQGIAYWSTDLFGFYTTPTNVTLEMTGYFLPPQTGSYTFSFATVDDSAILSVGGSIAFECCAQEQPPITSTNFTINGIKPWDGSLPDNITGTVYMYAGYYYPLKVVYSNAVSWGTLPISVELPDGTTVSDNFEGYVYSFDDDLSQSNCTIPDPSIH , what is its reported glycan array binding signal (z-score)?
**Result** -0.14
